Target: T1, XPF-wt (Saccharolobus (Sulfolobus) solfataricus, UniProt Q7LXL5 1-233)
T1 sequence: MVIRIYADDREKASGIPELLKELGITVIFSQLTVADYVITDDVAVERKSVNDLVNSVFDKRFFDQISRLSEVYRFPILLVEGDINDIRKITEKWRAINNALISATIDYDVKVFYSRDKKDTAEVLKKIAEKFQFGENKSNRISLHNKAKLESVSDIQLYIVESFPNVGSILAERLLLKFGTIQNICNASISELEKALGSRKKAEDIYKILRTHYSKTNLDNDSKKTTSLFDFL
Assay: FRET
observable: pKd
Give bare numbers, as −log10 of the molar value.

binder	quantitative-readout
Flap-13 (structured_DNA, amino-C6-dT at T9 of B strand; internal fluorescein-dT at T10 of C strand) DNA 1: AGCCCGACAGCAGTCAGAGCTTGCTAGGACGGACGGT DNA 2: ACCGTCCGTCCTAGCAAGCATTTTTTT DNA 3: TCTGACTGCTGTCGGGCT	5.04
Flap-12 (structured_DNA, internal fluorescein-dT at T9 of B strand; 3' amino modifier on B strand) DNA 1: AGCCCGACAGCAGTCAGAGCTTGCTAGGACGGACGGT DNA 2: ACCGTCCGTCCTAGCAAGCATTTTTTT DNA 3: TCTGACTGCTGTCGGGCT	5.59

Let us move to another entry and its pKd.
Enquiry: Form field: reported pKd of Flap-23 (structured_DNA, 3' Cy3 on B strand; internal fluorescein-dT at T10 of C strand) DNA 1: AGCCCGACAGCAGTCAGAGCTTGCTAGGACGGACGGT DNA 2: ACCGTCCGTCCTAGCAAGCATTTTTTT DNA 3: TCTGACTGCTGTCGGGCT
Return: 5.30

Cited source: paper PMC2836553
